Readings of IC50 for the listed compounds
Tested on: L. infantum axenic amastigotes
Assay: In vitro antileishmanial activity, axenic amastigotes (MTT)
Assay type: cell-based
Settings: Leishmania infantum; axenic amastigotes; 48 h; mean ± SD; read-out: IC50 (µM) Axenic amastigotes L. infantum
Answer format: numeric, µM implied, no suffix.

C[C@@H]1[C@H](O)[C@@H](C)/C=C/C=C/C=C/C=C/C=C/C=C/C=C/[C@H](O[C@@H]2O[C@H](C)[C@@H](O)[C@H](N)[C@@H]2O)C[C@@H]2O[C@](O)(C[C@@H](O)C[C@@H](O)[C@H](O)CC[C@@H](O)C[C@@H](O)CC(=O)O[C@H]1C)C[C@H](O)[C@H]2C(=O)O [AmpB, amphotericin B, reference compound] ... 0.08

**Q:** Name the recorded IC50 of the item COc1cc(O)c2c(=O)cc(-c3ccccc3O)oc2c1 in your answer.
**A:** 262
